Where do these numbers come from? They come from patent US11897862B2.

biological target: IKZF1 (Homo sapiens, UniProt Q13422+Q96SW2); construct: expressed in transfected cells; assay: HEK293 HiBiT in vitro degradation of IKZF1; assay type: cell-based; settings: HEK293, HEK293 HiBiT; maximum degradation at the highest concentration tested
Sequence (Q13422 whole entry): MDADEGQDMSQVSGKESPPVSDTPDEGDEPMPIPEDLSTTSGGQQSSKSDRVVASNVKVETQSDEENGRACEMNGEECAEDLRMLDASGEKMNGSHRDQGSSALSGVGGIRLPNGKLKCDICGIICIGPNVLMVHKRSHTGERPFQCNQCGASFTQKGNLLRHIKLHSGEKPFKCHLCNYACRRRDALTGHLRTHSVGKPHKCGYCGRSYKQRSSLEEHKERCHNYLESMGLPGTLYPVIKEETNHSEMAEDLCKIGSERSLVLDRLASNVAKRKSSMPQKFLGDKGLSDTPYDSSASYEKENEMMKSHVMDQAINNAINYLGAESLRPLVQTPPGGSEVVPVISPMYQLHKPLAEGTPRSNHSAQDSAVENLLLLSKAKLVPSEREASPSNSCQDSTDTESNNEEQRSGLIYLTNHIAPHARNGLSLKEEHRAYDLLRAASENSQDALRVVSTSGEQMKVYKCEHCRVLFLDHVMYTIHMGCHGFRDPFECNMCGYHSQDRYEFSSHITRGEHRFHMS
Sequence (Q96SW2 whole entry): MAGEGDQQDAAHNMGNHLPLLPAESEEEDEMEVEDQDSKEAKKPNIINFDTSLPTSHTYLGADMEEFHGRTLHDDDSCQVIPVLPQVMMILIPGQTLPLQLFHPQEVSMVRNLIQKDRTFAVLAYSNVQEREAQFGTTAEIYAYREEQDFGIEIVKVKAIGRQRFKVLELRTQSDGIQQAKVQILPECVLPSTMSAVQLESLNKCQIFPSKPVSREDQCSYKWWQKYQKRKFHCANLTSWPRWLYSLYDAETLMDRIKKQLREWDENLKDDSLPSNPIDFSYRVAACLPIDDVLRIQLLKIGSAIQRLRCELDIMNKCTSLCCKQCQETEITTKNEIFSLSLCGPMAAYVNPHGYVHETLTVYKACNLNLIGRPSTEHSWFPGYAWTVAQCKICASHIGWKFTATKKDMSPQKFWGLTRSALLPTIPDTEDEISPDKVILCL
Sequence (Q16531 whole entry partner): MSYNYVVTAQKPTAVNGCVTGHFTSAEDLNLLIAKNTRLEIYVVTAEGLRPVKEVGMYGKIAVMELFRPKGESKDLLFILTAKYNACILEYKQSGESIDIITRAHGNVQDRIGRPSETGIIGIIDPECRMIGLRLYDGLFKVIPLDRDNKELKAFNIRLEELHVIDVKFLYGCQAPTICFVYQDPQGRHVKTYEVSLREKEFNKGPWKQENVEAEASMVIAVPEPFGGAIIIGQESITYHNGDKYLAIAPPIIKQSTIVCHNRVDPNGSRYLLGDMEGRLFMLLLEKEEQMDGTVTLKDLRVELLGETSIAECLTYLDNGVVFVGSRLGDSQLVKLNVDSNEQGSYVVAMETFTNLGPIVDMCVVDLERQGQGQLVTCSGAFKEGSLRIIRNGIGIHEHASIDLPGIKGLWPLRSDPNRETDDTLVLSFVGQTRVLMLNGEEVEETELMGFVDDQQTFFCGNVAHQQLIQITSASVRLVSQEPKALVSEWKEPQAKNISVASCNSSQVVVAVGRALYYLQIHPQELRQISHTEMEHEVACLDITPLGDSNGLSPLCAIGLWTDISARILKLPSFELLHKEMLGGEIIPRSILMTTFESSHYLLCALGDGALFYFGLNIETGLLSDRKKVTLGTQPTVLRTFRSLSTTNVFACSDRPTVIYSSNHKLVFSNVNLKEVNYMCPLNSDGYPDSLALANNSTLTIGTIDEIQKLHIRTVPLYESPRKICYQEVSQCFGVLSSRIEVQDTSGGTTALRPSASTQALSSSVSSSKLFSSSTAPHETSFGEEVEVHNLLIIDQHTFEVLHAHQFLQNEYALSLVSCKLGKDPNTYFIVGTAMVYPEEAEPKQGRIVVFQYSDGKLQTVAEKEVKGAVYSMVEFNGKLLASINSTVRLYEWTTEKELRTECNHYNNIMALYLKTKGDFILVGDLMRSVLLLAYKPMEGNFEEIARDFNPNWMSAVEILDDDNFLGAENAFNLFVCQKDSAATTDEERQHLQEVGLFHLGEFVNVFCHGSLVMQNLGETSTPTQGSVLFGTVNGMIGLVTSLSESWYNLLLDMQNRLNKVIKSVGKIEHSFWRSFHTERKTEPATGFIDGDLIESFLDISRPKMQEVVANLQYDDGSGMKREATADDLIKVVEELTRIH
Reported Endpoint: Dmax (%)

[
  {
    "Compound": "O=C1CCC(N2Cc3c(ccc(C[C@H]4CCCC[C@@H]4NCC4CCC(F)(F)CC4)c3F)C2=O)C(=O)N1 (stereo partly drawn)",
    "Dmax (%)": 37
  },
  {
    "Compound": "Cn1ncc2c1CCC(N[C@H]1CCCC[C@@H]1Cc1ccc3c(c1)CN(C1CCC(=O)NC1=O)C3=O)C2 (stereo partly drawn)",
    "Dmax (%)": 48
  },
  {
    "Compound": "O=C1CCC(N2Cc3cc(C[C@H]4CCCC[C@@H]4NCCC(F)(F)F)ccc3C2=O)C(=O)N1 (stereo partly drawn)",
    "Dmax (%)": 37
  }
]
